Attribution: patent US20240182445A1

target: human TREK-1 (Homo sapiens, UniProt O95069); construct: expressed in transfected cells; assay: TREK-1 Thallium (Tl+) flux assay, Method 1; type: cell-based; settings: TREK-1 Thallium (Tl+) flux assay; values without footnote *12 are Method 1
Sequence (O95069 whole entry): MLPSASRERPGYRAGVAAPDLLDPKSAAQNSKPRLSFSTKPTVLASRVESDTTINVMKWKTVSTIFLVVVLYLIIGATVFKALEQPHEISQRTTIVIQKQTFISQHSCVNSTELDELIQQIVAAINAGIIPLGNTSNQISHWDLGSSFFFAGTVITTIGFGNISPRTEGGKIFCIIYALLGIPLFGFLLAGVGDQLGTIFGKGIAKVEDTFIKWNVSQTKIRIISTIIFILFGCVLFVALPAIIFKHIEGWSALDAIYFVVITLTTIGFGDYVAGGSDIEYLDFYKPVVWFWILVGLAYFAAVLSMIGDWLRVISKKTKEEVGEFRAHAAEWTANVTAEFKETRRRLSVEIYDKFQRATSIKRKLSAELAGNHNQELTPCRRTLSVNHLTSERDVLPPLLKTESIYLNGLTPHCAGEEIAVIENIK
Below, each of the molecules is paired with its reported IC50 value.
Report the value in nM with no unit label.

smi=CC(=O)N1CC[C@H](n2ncc(Cl)c2C(=O)Nc2ncc(C#Cc3ccccc3)cc2C)C1 target_or_system="human TREK-1 (Homo sapiens, UniProt O95069)" reading_unit=nM number=220
smi=CC(=O)N1CCC(Cn2ncc(Cl)c2C(=O)Nc2ncc(C#Cc3ccccc3)cc2F)CC1 target_or_system="human TREK-1 (Homo sapiens, UniProt O95069)" reading_unit=nM number=130

Give the observed IC50 of "O=C(Nc1ncc(C#Cc2ccccc2)cc1F)c1c(Cl)cnn1CCC1CCN(C(=O)C2CC2)CC1" for human TREK-1 (Homo sapiens, UniProt O95069).
140

Give the observed IC50 of "Cc1cc(C#Cc2ccc(F)cc2)cnc1NC(=O)c1c(Cl)cnn1C1CCN(C(=O)C(C)C)CC1" for human TREK-1 (Homo sapiens, UniProt O95069).
240

Give the observed IC50 of "O=C(Nc1ncc(C#Cc2ccccc2)cc1F)c1c(Cl)cnn1C[C@@H]1CCOC1" for human TREK-1 (Homo sapiens, UniProt O95069).
240

Give the observed IC50 of "CCNC(=O)N1CCC(n2ncc(Cl)c2C(=O)Nc2ncc(C#Cc3ccccc3)cc2F)CC1" for human TREK-1 (Homo sapiens, UniProt O95069).
250

Give the observed IC50 of "CC(C)(C)OC(=O)N1CCC(C#N)(Cn2ncc(Cl)c2C(=O)Nc2ncc(C#Cc3ccccc3)cc2F)CC1" for human TREK-1 (Homo sapiens, UniProt O95069).
160

Give the observed IC50 of "CC(C)(C)OC(=O)N1CCC(Cn2ncc(Cl)c2C(=O)Nc2ncc(C#Cc3ccccc3)cc2F)CC1" for human TREK-1 (Homo sapiens, UniProt O95069).
230

---

Experiment: Rat in vivo pharmacokinetics and brain distribution (i.v. cassette)
Conditions: iv; rat i.v. cassette injection; plasma clearance; read-out: Rat CLp
Experimental: Compound 12 was tested in several in vivo assays to investigate pharmacokinetics and brain distribution. Abbreviations which have been used in the descriptions of following tables are; CLp is plasma clearance; Vss is volume of distribution at steady state; Elim. t1/2 is half-life for elimination; Kp is tissue distribution partition coefficient; Kp,uu is unbound tissue distribution partition coefficient.
parameter: clearance (mL/min/kg)
Report the value in mL/min/kg with no unit label.

Name the recorded clearance of the compound listed here: "CC(=O)N[C@H]1CC[C@@H](n2ncc(Cl)c2C(=O)Nc2ncc(C#Cc3ccccc3)cc2C)CC1"
28

---

Below, each of the compounds is paired with its reported pIC50 value.
molecular target: human TREK-1 (Homo sapiens, UniProt O95069); construct: expressed in transfected cells; assay: TREK-1 Thallium (Tl+) flux assay, Method 1; type: cell-based; conditions: TREK-1 Thallium (Tl+) flux assay; values without footnote *12 are Method 1
On this scale, pIC50 is minus log10 of a concentration expressed in M (mol/L).

compound=CC(=O)N1CCC(CCn2ncc(Cl)c2C(=O)Nc2ncc(C#Cc3cccc(F)c3)cc2C)CC1 parameter=pIC50 number=6.66
compound=CC(=O)N1CC[C@@H](Cn2ncc(Cl)c2C(=O)Nc2ncc(C#Cc3ccccc3)cc2F)[C@H](F)C1 parameter=pIC50 number=6.57

Name the recorded pIC50 of the compound listed here: "Cc1cc(C#Cc2ccccc2)cc(F)c1NC(=O)c1c(Cl)cnn1C1CCOCC1"
6.55

Name the recorded pIC50 of the compound listed here: O=C(Nc1ncc(C#Cc2ccccc2)cc1F)c1c(Cl)cnn1C1CCN(C(=O)C2COCCO2)CC1 (stereo not shown)
6.92

Name the recorded pIC50 of the compound listed here: "CC(=O)N[C@H]1C[C@@H](n2ncc(Cl)c2C(=O)Nc2ncc(C#Cc3ccccc3)cc2C)C1"
6.82

Name the recorded pIC50 of the compound listed here: "Cc1cc(C#Cc2ccccc2)cnc1NC(=O)c1c(Cl)cnn1C1CCN(C(=O)C(C)C)CC1"
6.57

Name the recorded pIC50 of the compound listed here: Cc1cc(C#Cc2ccccc2)cnc1NC(=O)c1c(Cl)cnn1CC1COCCO1 (stereo not shown)
6.17

Name the recorded pIC50 of the compound listed here: "O=C(Nc1ncc(C#Cc2ccccc2)cc1F)c1c(Cl)cnn1C[C@H]1CCOC1"
6.82
